- PROTOCOL SUMMARY: Percent bioavailability was administered by using 0.4% Methyl cellulose (MC) as vehicle to nude mice at a dose of 25 mg/kg (micronized sample)
- Assay type: ADME, organism-based
- RECORDED CONDITIONS: mouse, in vivo, read-out: Bioavailabiility
READOUT KIND: bioavailability

>>> print(df.to_string())
                      smiles_representation  meas_value
0  O=C(CC1CCN(C(=O)c2ccc[n+]([O-])c2)CC1)N1CCC([C@H]2c3ncc(Br)cc3CCc3cc(Cl)cc(Br)c32)CC1       9.28%

----------
- PROTOCOL SUMMARY: Bioavailability in mouse (nude) (dose 0.4% Methylcellulose (MC) as vehicle 25 mg/kg)
- Assay type: ADME, organism-based
- RECORDED CONDITIONS: in vivo
READOUT KIND: bioavailability (%)

                      smiles_representation  meas_value
0  N#CCC(=O)N1CCC(CC(=O)N2CCC([C@H]3c4ncc(Br)cc4CCc4cc(Cl)cc(Br)c43)CC2)CC1         8.6
1  O=C(CC1CCN(C(=O)c2cc[n+]([O-])cc2)CC1)N1CCC([C@H]2c3ncc(Br)cc3CCc3cc(Cl)cc(Br)c32)CC1        14.6
2  O=C(CC1CCN(C(=O)c2ccc[n+]([O-])c2)CC1)N1CCC([C@H]2c3ncc(Br)cc3CCc3cc(Cl)cc(Br)c32)CC1        5.81

----------
- ASSAY SYSTEM: Protein farnesyltransferase (Homo sapiens, UniProt P49354+P49356)
- PROTOCOL SUMMARY: Effect on Ras processing in Cos-1 monkey kidney cells expressing either H-Ras-Val 12-CVLS or H-Ras-Val12.
- Assay type: functional, cell-based, Cercopithecidae
Please use the following IC50 ranges when assigning a class: bin 0: < 9 nM; bin 1: ≥ 9 nM and < 40 nM; bin 2: ≥ 40 nM

>>> df
                      smiles_representation  class_label
0  NC(=O)CN1CCC(CC(=O)N2CCC([C@H]3c4ncc(Br)cc4CCc4cc(Cl)cc(Br)c43)CC2)CC1        bin 0
1  O=C(O)c1cncc(C(=O)N2CCC(CC(=O)N3CCC([C@H]4c5ncc(Br)cc5CCc5cc(Cl)cc(Br)c54)CC3)CC2)c1        bin 2
2  NC(=O)c1cncc(C(=O)N2CCC(CC(=O)N3CCC([C@H]4c5ncc(Br)cc5CCc5cc(Cl)cc(Br)c54)CC3)CC2)c1        bin 1
3  NC(=O)CNC(=O)N1CCC(CC(=O)N2CCC([C@H]3c4ncc(Br)cc4CCc4cc(Cl)cc(Br)c43)CC2)CC1        bin 1
4  O=C(CC1CCN(S(=O)(=O)Cc2ccccc2)CC1)N1CCC([C@H]2c3ncc(Br)cc3CCc3cc(Cl)cc(Br)c32)CC1        bin 2
5  O=C(CC1CCN(C(=O)c2ccc[n+]([O-])c2)CC1)N1CCC([C@H]2c3ncc(Br)cc3CCc3cc(Cl)cc(Br)c32)CC1        bin 0
6  CN(C)C(=O)C(=O)N1CCC(CC(=O)N2CCC([C@H]3c4ncc(Br)cc4CCc4cc(Cl)cc(Br)c43)CC2)CC1        bin 1
7  O=C(CC1CCN(CC(=O)N2CCOCC2)CC1)N1CCC([C@H]2c3ncc(Br)cc3CCc3cc(Cl)cc(Br)c32)CC1        bin 1
8  C[C@H](N)C(=O)N1CCC(CC(=O)N2CCC([C@H]3c4ncc(Br)cc4CCc4cc(Cl)cc(Br)c43)CC2)CC1        bin 2
